Values compiled from paper PMC5540273.

tested on: PKMYT1; settings: concentration: 1 μM,replicates: in singlicate; n = 1;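 note: KINOMEscan kinase panel screen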
Readout Name: %Inh (%)
State just the number; it will be interpreted in %.

stdin: Could you share which %Inh value was measured for O=C1NCCc2[nH]c(-c3ccncc3)cc21 ?
stdout: 4

stdin: Could you share which %Inh value was measured for CN(c1cccc(CNc2nc(Nc3ccc4c(c3)CC(=O)N4)ncc2C(F)(F)F)c1)S(C)(=O)=O ?
stdout: 5

stdin: Could you share which %Inh value was measured for Nc1nccc(-c2ccc3c(N)n[nH]c3c2)n1 [GSK1034945] ?
stdout: 8

stdin: Could you share which %Inh value was measured for CCN1CCN(CCCC(=O)Nc2n[nH]c3nc(-c4ccc(O)cc4)c(Br)cc23)CC1 [SB-731579] ?
stdout: 0

stdin: Could you share which %Inh value was measured for COc1cc2c(Nc3ccc(NC(=O)c4ccccc4)cc3)ncnc2cc1OCCCN1CCOCC1 [GSK301329] ?
stdout: 1

stdin: Could you share which %Inh value was measured for CNC(=O)c1ccccc1Nc1nc(Nc2cccc(CS(C)(=O)=O)c2)ncc1C.O=CO [GSK1520489] ?
stdout: 84

stdin: Could you share which %Inh value was measured for Cc1nnc(-c2ccc3occ(-c4ccc(S(C)=O)cc4)c3n2)o1 (stereo not shown) ?
stdout: 64

stdin: Could you share which %Inh value was measured for C[C@@H]1CNc2c(sc3ccc4nc(-c5ccncc5)ccc4c23)C(=O)N1 ?
stdout: 7

stdin: Could you share which %Inh value was measured for COc1cccc(CNC(=O)NC2CCN(c3ccnc(Nc4cc(OC)c(OC)c(OC)c4)n3)C2)c1 (stereo not shown) [GSK1379765] ?
stdout: 8

stdin: Could you share which %Inh value was measured for FC(F)(F)c1cc(Br)cc(Nc2nccc(-c3cnn4ncccc34)n2)c1 [GW810578] ?
stdout: 1

stdin: Could you share which %Inh value was measured for CN1CCN(CCNc2nc3cc(Oc4ccc(NC(=O)Nc5cc(C(F)(F)F)ccc5F)cc4)ccc3[nH]2)CC1.Cl.Cl [GW768504] ?
stdout: 0

stdin: Could you share which %Inh value was measured for CS(=O)(=O)Nc1ccc(-c2ccnc3[nH]ccc23)cc1 [GSK993273] ?
stdout: 0

stdin: Could you share which %Inh value was measured for CN(c1ccccc1CNc1nc(Nc2ccc3c(c2)CC(=O)N3)ncc1C(F)(F)F)S(C)(=O)=O ?
stdout: 0

stdin: Could you share which %Inh value was measured for CN(c1ccc2c(c1)nc(NCc1ccc(F)cc1)n2C)c1ccnc(Nc2ccc(CS(C)(=O)=O)cc2)n1.Cl [GW813244] ?
stdout: 4

stdin: Could you share which %Inh value was measured for Cc1ccc(Nc2ccnc(Nc3ccc4c(c3)CS(=O)(=O)C4)n2)cc1O.Cl [GW579362] ?
stdout: 0

stdin: Could you share which %Inh value was measured for O=C(NOCC1CC1)c1cc(Br)c(F)c(F)c1Nc1ccc(I)cc1Cl ?
stdout: 0

stdin: Could you share which %Inh value was measured for Cc1ccc(CC(=O)N2CCc3cc(-c4cn(C)c5ncnc(N)c45)ccc32)cc1 [GSK2634758] ?
stdout: 4

stdin: Could you share which %Inh value was measured for Cn1ccc2ncnc(Oc3ccc(NC(=O)Nc4cccc(C(F)(F)F)c4)c(Cl)c3)c21 ?
stdout: 0

stdin: Could you share which %Inh value was measured for Cc1ccc2c(-c3ccnc(Nc4ccc(C(F)(F)F)cc4)n3)cnn2n1 [GW819776] ?
stdout: 0

stdin: Could you share which %Inh value was measured for COc1ccc(Nc2nccc(N3CCC(NC(=O)c4cccc(C#N)c4)C3)n2)cc1 (stereo not shown) [GSK1379730] ?
stdout: 0

stdin: Could you share which %Inh value was measured for Cn1ccc2ncnc(Oc3ccc(NC(=O)Nc4cncc(C(F)(F)F)c4)c(Cl)c3)c21 ?
stdout: 6

stdin: Could you share which %Inh value was measured for C[C@@H](Oc1cc(-n2cnc3ccc(-c4ccncc4)cc32)sc1C(N)=O)c1ccccc1Cl [GSK483724] ?
stdout: 0

stdin: Could you share which %Inh value was measured for CSc1nccc(-c2c(-c3ccc(F)cc3)ncn2CCCN2CCOCC2)n1.Cl [SB-217146] ?
stdout: 0

stdin: Could you share which %Inh value was measured for CC(=O)c1c(-c2ccncc2)[nH]c(-c2ccncc2)c1C [GW493036] ?
stdout: 0

stdin: Could you share which %Inh value was measured for CS(=O)c1ccc(-c2coc3ccc(-c4n[nH]c(=O)o4)cc23)cc1 (stereo not shown) ?
stdout: 8

stdin: Could you share which %Inh value was measured for CC(C)c1nc(-c2cccc(NS(=O)(=O)c3ccccc3)c2)c(-c2ccnc(Nc3ccc4c(c3)CN(C)CC4)n2)s1 [GSK1649598] ?
stdout: 0

stdin: Could you share which %Inh value was measured for C[C@@H](Oc1cc(-n2cnc3cc(-c4cnn(C)c4)ccc32)sc1C(N)=O)c1ccccc1Cl [GSK580432] ?
stdout: 15

stdin: Could you share which %Inh value was measured for O=C(Nc1cccc(C(F)(F)F)c1)c1cccc(Oc2ccc3nccn3n2)c1 ?
stdout: 9

stdin: Could you share which %Inh value was measured for O=C(Nc1ccccc1)c1cccc(Oc2ccc3nccn3n2)c1 ?
stdout: 0

stdin: Could you share which %Inh value was measured for CC(C)S(=O)(=O)N1CCN(Cc2ccc3c(c2)nc(NC(=O)c2ccsc2)n3C[C@H](O)c2ccccc2)CC1 [GW635815] ?
stdout: 8

stdin: Could you share which %Inh value was measured for Cc1ccc(C(=O)Nc2ccc(Oc3ccc4nc(NC(=O)C5CC5)cn4c3)c(F)c2)c(=O)n1-c1ccccc1 ?
stdout: 0

stdin: Could you share which %Inh value was measured for Cl.Cl.NC[C@H](CC1CCCCC1)NC(=O)c1ccc(-c2ccnc3[nH]ccc23)s1 [GSK1581428] ?
stdout: 0

stdin: Could you share which %Inh value was measured for COC(=O)Nc1nc2cc(Oc3ccc(NC(=O)Nc4cc(C(F)(F)F)ccc4Cl)cc3)ccc2[nH]1.Cl [GW697465] ?
stdout: 0

stdin: Could you share which %Inh value was measured for Cl.Nc1n[nH]c2cc(-c3ccccn3)ccc12 [GSK2189892] ?
stdout: 0
